Every entry's value here was drawn from ChEMBL document CHEMBL4725450.

- Test Summary: AUC (0 to 24 hrs) in Cebus monkey at 5 mg/kg, po
- Type: ADME, organism-based
- Design: route oral, dose 5 mg/kg, time <=24
- Experimental Parameters: in vivo
Measure: AUC(0-t) (µg·h/mL)
# number only, unit µg·h/mL dropped from output

AUC(0-t) reading for O=C(c1cc(Cl)c(O)c(Cl)c1)N1CS(=O)(=O)c2ccccc21 [DOTINURAD] : 109

----------
Measured inhibition at 10 µM, listed per entry for reference.
- Target: UniProt Q96S37
- Sequence (Q96S37 whole entry): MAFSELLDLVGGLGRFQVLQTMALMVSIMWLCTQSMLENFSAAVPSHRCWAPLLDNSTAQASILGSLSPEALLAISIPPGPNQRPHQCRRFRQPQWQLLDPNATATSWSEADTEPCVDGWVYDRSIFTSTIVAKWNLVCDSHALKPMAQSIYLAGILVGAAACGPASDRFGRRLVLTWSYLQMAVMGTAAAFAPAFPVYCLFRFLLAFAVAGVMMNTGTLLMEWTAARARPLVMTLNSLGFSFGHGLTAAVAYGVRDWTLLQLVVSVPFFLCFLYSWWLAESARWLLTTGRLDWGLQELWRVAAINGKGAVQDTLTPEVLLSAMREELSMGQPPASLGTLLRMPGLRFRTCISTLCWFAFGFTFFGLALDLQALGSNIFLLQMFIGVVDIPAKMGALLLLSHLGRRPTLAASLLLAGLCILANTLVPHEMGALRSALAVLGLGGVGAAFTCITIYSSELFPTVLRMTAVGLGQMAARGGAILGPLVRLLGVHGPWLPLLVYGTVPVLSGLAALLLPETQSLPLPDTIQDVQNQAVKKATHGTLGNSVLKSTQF
- Test Summary: Inhibition of URAT1 in human RPTEC assessed as inhibition of [14C]uric acid uptake at 10 uM preincubated for 15 mins followed by [14C]uric acid addition and incubated under shaking condition for 2 hrs by scintillation counter method
- Assay type: tissue-based
Please state the figure in %; there is no need to write the unit.

Sample answers from the record:
# Compound, Target, inhibition at 10 µM / %
rows = [
    ("Cc1c(C)n(C(=O)c2ccc(O)c(C#N)c2)c2ccccc12", "UniProt Q96S37", 52.1),
    ("O=C(c1cc(Cl)c(O)c(Cl)c1)N1CS(=O)(=O)c2ccccc21 [DOTINURAD]", "UniProt Q96S37", 81),
    ("N#Cc1cc(C(=O)N2CCc3ccccc32)ccc1O", "UniProt Q96S37", 67.5),
]

The compound "N#Cc1cc(C(=O)N2CCc3ccccc32)cc(C(F)(F)F)c1O" , when measured on UniProt Q96S37, yielded inhibition at 10 µM of 30

The reported UniProt Q96S37 inhibition at 10 µM of "CCc1cc(C(=O)N2CS(=O)(=O)c3ccccc32)cc(C#N)c1O" is 32

Considering "N#Cc1cc(C(=O)N2CCc3ccccc32)cc(C2CC2)c1O" , its inhibition at 10 µM with UniProt Q96S37 was recorded as 67.8

Field inhibition at 10 µM (system: UniProt Q96S37) for entry "N#Cc1cc(C(=O)N2CSc3ccccc32)cc(C(F)(F)F)c1O" = 49

----------
- Test Summary: Cmax in rat at 0.3 mg/kg, iv
- Assay type: ADME, organism-based
- Parameters: route intravenous, dose 0.3 mg/kg
- Experimental Parameters: in vivo
Measure: Cmax (ng/mL)
Note: unit ng/mL is implicit; provide only the numeric part.

Sample "O=C(c1cc(Cl)c(O)c(Cl)c1)N1CS(=O)(=O)c2ccccc21" ; Cmax observed: 2400

----------
- Test Summary: Drug excretion rate in rat urine at 3 mg/kg, po measured up to 4 hrs by HPLC analysis
- Format: ADME, organism-based
- Experimental Parameters: read-out: Drug excretion
Mark each entry yes (1) if its dose excreted at 4 h sits below 0.3%, and no (0) for all others.

Here's what some known entries look like.
# Molecule, Class Name
rows = [
    ("N#Cc1cc(C(=O)N2CSc3ccccc32)cc(C(F)(F)F)c1O", "yes (1)"),
    ("CC(C)c1cc(C(=O)N2CS(=O)(=O)c3ccccc32)cc(C#N)c1O", "yes (1)"),
]

Exercise: Strictly below 0.3% in dose excreted at 4 h? "N#Cc1cc(C(=O)N2CCc3ccccc32)cc(C2CC2)c1O"
Key: no (0)

Exercise: Take the molecule "CCc1cc(C(=O)N2CS(=O)(=O)c3ccccc32)cc(C#N)c1O" and say whether its dose excreted at 4 h is less than 0.3%.
Key: no (0)

Exercise: For this molecule, is dose excreted at 4 h lower than 0.3%? "N#Cc1cc(C(=O)N2CCc3ccccc32)ccc1O"
Key: no (0)

Exercise: Please let me know if CCc1oc2ccccc2c1C(=O)c1cc(Br)c(O)c(Br)c1 [BENZBROMARONE] shows dose excreted at 4 h below 0.3%.
Key: yes (1)
